details: in chloroform, 308.15 K
metric: solubility (mole fraction)
Respond using a number only.

So, `CC(C)COc1ccccc1B(O)O` ? Its solubility (mole fraction) was 0.361

* * *

details: in acetone, 325.35 K
metric: solubility (mole fraction)

So, `CC(C)COc1ccc(B(O)O)cc1` ? Its solubility (mole fraction) was 0.218

* * *

details: in acetone, 344.45 K
metric: solubility (mole fraction)
Respond using a number only.

So, `CC(C)COc1ccccc1B(O)O` ? Its solubility (mole fraction) was 0.737

* * *

details: in methylcyclohexane, 345.55 K
metric: solubility (mole fraction)
Respond using a number only.

So, `CC(C)COc1ccc(B(O)O)cc1` ? Its solubility (mole fraction) was 0.266

* * *

details: in 3-pentanone, 337.25 K
metric: solubility (mole fraction)
Respond using a number only.

So, `CC(C)COc1ccccc1B(O)O` ? Its solubility (mole fraction) was 0.67

* * *

details: in 3-pentanone, 318.85 K
metric: solubility (mole fraction)
Respond using a number only.

So, `CC(C)COc1ccccc1B(O)O` ? Its solubility (mole fraction) was 0.444

* * *

details: in dipropyl ether, 294.15 K
metric: solubility (mole fraction)
Respond using a number only.

So, `CC(C)COc1ccccc1B(O)O` ? Its solubility (mole fraction) was 0.157

* * *

details: in methylcyclohexane, 332.95 K
metric: solubility (mole fraction)

So, `CC(C)COc1ccccc1B(O)O` ? Its solubility (mole fraction) was 0.253

* * *

details: in chloroform, 313.15 K
metric: solubility (mole fraction)
Respond using a number only.

So, `CC(C)COc1ccccc1B(O)O` ? Its solubility (mole fraction) was 0.402

* * *

details: in chloroform, 334.25 K
metric: solubility (mole fraction)
Respond using a number only.

So, `CC(C)COc1ccc(B(O)O)cc1` ? Its solubility (mole fraction) was 0.146

* * *

details: in chloroform, 325.75 K
metric: solubility (mole fraction)

So, `CC(C)COc1ccccc1B(O)O` ? Its solubility (mole fraction) was 0.514

* * *

details: in acetone, 293.65 K
metric: solubility (mole fraction)
Respond using a number only.

So, `CC(C)COc1ccccc1B(O)O` ? Its solubility (mole fraction) was 0.281

* * *

details: in acetone, 312.25 K
metric: solubility (mole fraction)
Respond using a number only.

So, `CC(C)COc1ccc(B(O)O)cc1` ? Its solubility (mole fraction) was 0.171

* * *

details: in dipropyl ether, 351.65 K
metric: solubility (mole fraction)
Respond using a number only.

So, `CC(C)COc1ccccc1B(O)O` ? Its solubility (mole fraction) was 0.813

* * *

details: in dipropyl ether, 345.65 K
metric: solubility (mole fraction)

So, `CC(C)COc1ccccc1B(O)O` ? Its solubility (mole fraction) was 0.73

* * *

details: in 3-pentanone, 309.05 K
metric: solubility (mole fraction)
Respond using a number only.

So, `CC(C)COc1ccccc1B(O)O` ? Its solubility (mole fraction) was 0.378

* * *

details: in methylcyclohexane, 315.55 K
metric: solubility (mole fraction)
Respond using a number only.

So, `CC(C)COc1ccccc1B(O)O` ? Its solubility (mole fraction) was 0.046

* * *

details: in acetone, 341.35 K
metric: solubility (mole fraction)
Respond using a number only.

So, `CC(C)COc1ccccc1B(O)O` ? Its solubility (mole fraction) was 0.695

* * *

details: in chloroform, 331.75 K
metric: solubility (mole fraction)
Respond using a number only.

So, `CC(C)COc1cccc(B(O)O)c1` ? Its solubility (mole fraction) was 0.131

* * *

details: in chloroform, 352.65 K
metric: solubility (mole fraction)

So, `CC(C)COc1ccc(B(O)O)cc1` ? Its solubility (mole fraction) was 0.324

* * *

details: in dipropyl ether, 312.65 K
metric: solubility (mole fraction)

So, `CC(C)COc1ccc(B(O)O)cc1` ? Its solubility (mole fraction) was 0.0705

* * *

details: in dipropyl ether, 319.75 K
metric: solubility (mole fraction)
Respond using a number only.

So, `CC(C)COc1cccc(B(O)O)c1` ? Its solubility (mole fraction) was 0.198

* * *

details: in methylcyclohexane, 323.65 K
metric: solubility (mole fraction)

So, `CC(C)COc1ccc(B(O)O)cc1` ? Its solubility (mole fraction) was 0.0191

* * *

details: in dipropyl ether, 338.65 K
metric: solubility (mole fraction)
Respond using a number only.

So, `CC(C)COc1ccccc1B(O)O` ? Its solubility (mole fraction) was 0.606

* * *

details: in methylcyclohexane, 344.45 K
metric: solubility (mole fraction)
Respond using a number only.

So, `CC(C)COc1ccccc1B(O)O` ? Its solubility (mole fraction) was 0.628

* * *

details: in chloroform, 328.75 K
metric: solubility (mole fraction)
Respond using a number only.

So, `CC(C)COc1ccc(B(O)O)cc1` ? Its solubility (mole fraction) was 0.115

* * *

details: in chloroform, 328.55 K
metric: solubility (mole fraction)
Respond using a number only.

So, `CC(C)COc1cccc(B(O)O)c1` ? Its solubility (mole fraction) was 0.0899

* * *

details: in dipropyl ether, 330.05 K
metric: solubility (mole fraction)
Respond using a number only.

So, `CC(C)COc1ccc(B(O)O)cc1` ? Its solubility (mole fraction) was 0.165

* * *

details: in dipropyl ether, 305.15 K
metric: solubility (mole fraction)
Respond using a number only.

So, `CC(C)COc1cccc(B(O)O)c1` ? Its solubility (mole fraction) was 0.126

* * *

details: in chloroform, 319.65 K
metric: solubility (mole fraction)
Respond using a number only.

So, `CC(C)COc1ccc(B(O)O)cc1` ? Its solubility (mole fraction) was 0.0785

* * *

details: in 3-pentanone, 297.65 K
metric: solubility (mole fraction)
Respond using a number only.

So, `CC(C)COc1ccccc1B(O)O` ? Its solubility (mole fraction) was 0.304

* * *

details: in acetone, 309.45 K
metric: solubility (mole fraction)
Respond using a number only.

So, `CC(C)COc1ccc(B(O)O)cc1` ? Its solubility (mole fraction) was 0.16

* * *

details: in 3-pentanone, 298.55 K
metric: solubility (mole fraction)

So, `CC(C)COc1ccccc1B(O)O` ? Its solubility (mole fraction) was 0.324

* * *

details: in dipropyl ether, 329.95 K
metric: solubility (mole fraction)
Respond using a number only.

So, `CC(C)COc1cccc(B(O)O)c1` ? Its solubility (mole fraction) was 0.275

* * *

details: in chloroform, 296.25 K
metric: solubility (mole fraction)
Respond using a number only.

So, `CC(C)COc1ccc(B(O)O)cc1` ? Its solubility (mole fraction) was 0.0212

* * *

details: in 3-pentanone, 313.65 K
metric: solubility (mole fraction)
Respond using a number only.

So, `CC(C)COc1ccc(B(O)O)cc1` ? Its solubility (mole fraction) was 0.205

* * *

details: in dipropyl ether, 316.45 K
metric: solubility (mole fraction)
Respond using a number only.

So, `CC(C)COc1ccccc1B(O)O` ? Its solubility (mole fraction) was 0.305

* * *

details: in methylcyclohexane, 324.35 K
metric: solubility (mole fraction)
Respond using a number only.

So, `CC(C)COc1ccccc1B(O)O` ? Its solubility (mole fraction) was 0.118

* * *

details: in 3-pentanone, 305.35 K
metric: solubility (mole fraction)
Respond using a number only.

So, `CC(C)COc1ccccc1B(O)O` ? Its solubility (mole fraction) was 0.356

* * *

details: in chloroform, 352.15 K
metric: solubility (mole fraction)
Respond using a number only.

So, `CC(C)COc1ccccc1B(O)O` ? Its solubility (mole fraction) was 0.866

* * *

details: in methylcyclohexane, 349.15 K
metric: solubility (mole fraction)
Respond using a number only.

So, `CC(C)COc1ccccc1B(O)O` ? Its solubility (mole fraction) was 0.731

* * *

details: in methylcyclohexane, 308.45 K
metric: solubility (mole fraction)
Respond using a number only.

So, `CC(C)COc1cccc(B(O)O)c1` ? Its solubility (mole fraction) was 0.0049

* * *

details: in acetone, 353.65 K
metric: solubility (mole fraction)

So, `CC(C)COc1ccccc1B(O)O` ? Its solubility (mole fraction) was 0.872

* * *

details: in acetone, 320.75 K
metric: solubility (mole fraction)

So, `CC(C)COc1ccccc1B(O)O` ? Its solubility (mole fraction) was 0.467

* * *

details: in methylcyclohexane, 331.85 K
metric: solubility (mole fraction)
Respond using a number only.

So, `CC(C)COc1ccccc1B(O)O` ? Its solubility (mole fraction) was 0.236

* * *

details: in chloroform, 350.25 K
metric: solubility (mole fraction)
Respond using a number only.

So, `CC(C)COc1ccccc1B(O)O` ? Its solubility (mole fraction) was 0.822

* * *

details: in 3-pentanone, 328.85 K
metric: solubility (mole fraction)
Respond using a number only.

So, `CC(C)COc1ccccc1B(O)O` ? Its solubility (mole fraction) was 0.547

* * *

details: in acetone, 296.85 K
metric: solubility (mole fraction)

So, `CC(C)COc1ccc(B(O)O)cc1` ? Its solubility (mole fraction) was 0.132

* * *

details: in methylcyclohexane, 309.15 K
metric: solubility (mole fraction)

So, `CC(C)COc1ccccc1B(O)O` ? Its solubility (mole fraction) was 0.0262
